List of Kd values.
target of assay: FMRP ISO1 (UniProt Q06787 1-632)
procedure details: fluorescence titration (2AP); 150 mM KCl, 1 uM BSA; Fluorescence: 10 mM cacodylic acid pH 6.5, 150 mM KCl, 1 uM BSA, 200 nM RNA; EMSA: 0.5x TBE native gels at 4 C (5 mM KCl for PSD-95 RNAs), incubation at room te

binder	Kd [nM]
GGGAGGGAGGGUGGG (structured_RNA, A4 replaced by 2-aminopurine) [PSD-95 Q2 4-2AP]	195
GGGAAAAGGGAGGGAUGGG (structured_RNA, A11 replaced by 2-aminopurine) [PSD-95 Q11234 11-2AP]	128
